molecular target: Beta-3 Adrenergic Receptor (Homo sapiens (Human)); test: Homogeneous Time-Resolved Fluorescence (HTRF) cAMP antagonist assay, IC50 determination; conditions: CHO-K1 cells stably expressing recombinant receptor, isoproterenol at EC90
Sequence (P13945 whole entry, species assumed): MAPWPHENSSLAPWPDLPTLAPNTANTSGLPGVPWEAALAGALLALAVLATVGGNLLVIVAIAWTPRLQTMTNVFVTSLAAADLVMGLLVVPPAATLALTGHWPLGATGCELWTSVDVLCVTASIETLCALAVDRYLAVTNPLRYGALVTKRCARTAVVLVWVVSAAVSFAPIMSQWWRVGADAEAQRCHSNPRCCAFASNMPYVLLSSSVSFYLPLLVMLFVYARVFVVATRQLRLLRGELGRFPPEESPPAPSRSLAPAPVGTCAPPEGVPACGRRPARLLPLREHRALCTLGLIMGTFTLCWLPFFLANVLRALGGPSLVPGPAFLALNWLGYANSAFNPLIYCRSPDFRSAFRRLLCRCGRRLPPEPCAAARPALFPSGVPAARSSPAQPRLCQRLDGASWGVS
PARAMETER: IC50 (nM)

COMPOUND	OBSERVED_RESULT
CNS(=O)(=O)c1cccc(OC[C@@H](O)CNC2COC3(CCN(S(=O)(=O)c4ccc(-c5ccc(F)cc5)cc4)CC3)C2)c1 (stereo partly shown) [Compound 122]	34.1
CNS(=O)(=O)c1cccc(OC[C@@H](O)CNC2COC3(CCN(S(=O)(=O)c4ccc(N(C)C)nc4)CC3)C2)c1 (stereo partly shown) [Compound 422]	16.7
CN1CCOc2ccc(S(=O)(=O)N3CCC4(CC3)CC(NC[C@H](O)COc3cccc(S(=O)(=O)N(C)C)c3)CO4)cc21 (stereo partly shown) [Compound 256]	21.1
CNS(=O)(=O)c1cccc(OC[C@@H](O)CN[C@H]2COC3(CCN(S(=O)(=O)c4cnc5[nH]c(=O)[nH]c5c4)CC3)C2)c1 [Compound 477]	52.3
CNS(=O)(=O)c1cccc(OC[C@@H](O)CN[C@H]2COC3(CCN(S(=O)(=O)c4cc5c(nc4N(C)C)OCCN5C)CC3)C2)c1 [Compound 453]	115
CNS(=O)(=O)c1cccc(OC[C@@H](O)CNC2COC3(CCN(S(=O)(=O)c4cccc(-c5cn[nH]c5)c4)CC3)C2)c1 (stereo partly shown) [Compound 64]	11.1
CNS(=O)(=O)c1cccc(OC[C@@H](O)CNC2COC3(CCN(S(=O)(=O)c4cccc(-c5cccc(COC)c5)c4)CC3)C2)c1 (stereo partly shown) [Compound 65]	85.6
CNS(=O)(=O)c1cccc(OC[C@@H](O)CNC2COC3(CCN(S(=O)(=O)c4c(F)cccc4F)CC3)C2)c1 (stereo partly shown) [Compound 156]	25.4
CN(C)S(=O)(=O)c1cccc(OC[C@@H](O)CNC2COC3(CCN(S(=O)(=O)c4ccc(Cl)c5nonc45)CC3)C2)c1 (stereo partly shown) [Compound 257]	37
C[C@H](CO)NS(=O)(=O)c1cccc(OC[C@@H](O)CN[C@@H]2COC3(CCN(S(=O)(=O)c4cccc(-c5ccc(CN)cc5)c4)CC3)C2)c1 [Compound 424]	51.3
O=S(=O)(NCCO)c1cccc(OC[C@@H](O)CNC2COC3(CCN(S(=O)(=O)c4ccc5ccccc5c4)CC3)C2)c1 (stereo partly shown) [Compound 12]	31.7
CNS(=O)(=O)c1cccc(OC[C@@H](O)CNC2COC3(CCN(S(=O)(=O)c4cccc(Cl)c4)CC3)C2)c1 (stereo partly shown) [Compound 15]	12.4
CNS(=O)(=O)c1cccc(OC[C@@H](O)CN[C@H]2COC3(CCN(S(=O)(=O)c4cnc5[nH]nc(C)c5c4)CC3)C2)c1 [Compound 497]	16.4
